Cited source for all entries: patent US6960597B2

# Study target: α4β1 integrin receptor (Homo sapiens, UniProt P05556+P13612)
# Construct: Ramos Cell Adhesion Assay (α4β1 Mediated Adhesion/VCAM-1); endogenous in cells; host or cells: Ramos cells
# Sequence (P13612 34-1032): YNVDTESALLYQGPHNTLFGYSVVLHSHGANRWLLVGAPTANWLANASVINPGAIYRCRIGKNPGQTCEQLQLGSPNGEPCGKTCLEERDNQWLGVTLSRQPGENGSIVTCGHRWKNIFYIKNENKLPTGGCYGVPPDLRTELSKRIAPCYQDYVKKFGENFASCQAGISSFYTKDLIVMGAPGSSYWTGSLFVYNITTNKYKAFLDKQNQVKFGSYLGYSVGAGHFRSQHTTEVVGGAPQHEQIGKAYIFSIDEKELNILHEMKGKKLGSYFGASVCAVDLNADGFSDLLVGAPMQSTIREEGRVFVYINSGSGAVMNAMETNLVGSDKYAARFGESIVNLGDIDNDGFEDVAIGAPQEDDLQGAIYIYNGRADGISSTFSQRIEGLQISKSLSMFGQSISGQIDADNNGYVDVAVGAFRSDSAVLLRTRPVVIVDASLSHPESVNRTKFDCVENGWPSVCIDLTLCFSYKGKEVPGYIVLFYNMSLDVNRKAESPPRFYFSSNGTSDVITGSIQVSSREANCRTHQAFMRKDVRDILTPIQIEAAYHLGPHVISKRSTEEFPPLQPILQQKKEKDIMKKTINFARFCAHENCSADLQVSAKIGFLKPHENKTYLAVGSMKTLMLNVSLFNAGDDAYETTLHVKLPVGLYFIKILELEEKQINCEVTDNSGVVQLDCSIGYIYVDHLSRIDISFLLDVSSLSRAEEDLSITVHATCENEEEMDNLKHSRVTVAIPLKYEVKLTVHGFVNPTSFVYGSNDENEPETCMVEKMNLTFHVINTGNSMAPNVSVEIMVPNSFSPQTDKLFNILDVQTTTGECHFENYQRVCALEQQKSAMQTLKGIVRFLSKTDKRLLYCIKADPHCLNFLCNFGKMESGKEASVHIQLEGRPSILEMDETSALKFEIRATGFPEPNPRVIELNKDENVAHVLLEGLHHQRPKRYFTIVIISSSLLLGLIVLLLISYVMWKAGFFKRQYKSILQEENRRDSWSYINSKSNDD
# Sequence (P05556 21-798): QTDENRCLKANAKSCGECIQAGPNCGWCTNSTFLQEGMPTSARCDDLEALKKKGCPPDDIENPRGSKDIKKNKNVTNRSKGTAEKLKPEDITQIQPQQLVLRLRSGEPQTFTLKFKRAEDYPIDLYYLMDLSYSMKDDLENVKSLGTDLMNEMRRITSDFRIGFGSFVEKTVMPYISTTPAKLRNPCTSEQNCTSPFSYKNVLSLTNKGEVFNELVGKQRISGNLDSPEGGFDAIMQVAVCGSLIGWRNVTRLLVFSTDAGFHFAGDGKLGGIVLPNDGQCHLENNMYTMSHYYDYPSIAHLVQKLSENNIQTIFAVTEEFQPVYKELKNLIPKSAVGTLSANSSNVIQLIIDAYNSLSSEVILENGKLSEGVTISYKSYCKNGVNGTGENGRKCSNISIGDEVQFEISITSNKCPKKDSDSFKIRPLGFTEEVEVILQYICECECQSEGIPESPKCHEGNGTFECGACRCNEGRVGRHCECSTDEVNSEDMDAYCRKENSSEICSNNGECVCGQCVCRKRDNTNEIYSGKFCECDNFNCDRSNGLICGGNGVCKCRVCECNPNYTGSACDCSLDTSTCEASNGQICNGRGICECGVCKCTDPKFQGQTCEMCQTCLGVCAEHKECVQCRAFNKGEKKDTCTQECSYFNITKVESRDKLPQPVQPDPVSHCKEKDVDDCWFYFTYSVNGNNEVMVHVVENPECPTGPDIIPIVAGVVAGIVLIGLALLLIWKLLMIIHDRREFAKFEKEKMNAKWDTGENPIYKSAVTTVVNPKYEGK
# Assay details: Ramos Cell Adhesion Assay (α4β1 Mediated Adhesion/VCAM-1)
# Format: cell-based
# Cond: Table III; read-out: Inhibition of Binding of Ramos Cells to Immobilized VCAM-1 IC50
# IC50 per entry
Output spec: scalar in nM, unitless text.

Solved entries:
Molecule | Data value
CC(C)(C)c1ccc(C[C@H](NC(=O)C2C3CCC(CC3)N2S(=O)(=O)c2ccccc2)C(=O)O)cc1 (stereo partly shown) [Cpd 58] | 523
CN(C)C(=O)Nc1ccc(C[C@H](NC(=O)C2C3CCC(CC3)N2S(=O)(=O)c2ccccc2)C(=O)O)cc1 (stereo partly shown) [Cpd 61] | 56
COc1cccc(OC)c1C(=O)Nc1ccc(C[C@H](NC(=O)[C@H]2C3CCC(C3)N2S(=O)(=O)c2ccccc2)C(=O)O)cc1 (stereo partly shown) [Cpd 19b] | 1210

Give reported IC50 value for COc1cccc(OC)c1C(=O)Nc1ccc(C[C@H](NC(=O)C2C3CCC(CC3)N2S(=O)(=O)c2ccc(C)cc2)C(=O)O)cc1 (stereo partly shown) [Cpd 3]
50
